Origin of values: patent US20190248900A1

Here, each record is paired with measured OD490 data.
- Study target: T1, M7-1
- T1 construct: also called PD1 mutant M7-1
- Procedure details: scFv-phage ELISA

PD1-42G4 (antibody, V domains shown, scFv-phage in the screening ELISA; later whole IgG) VH: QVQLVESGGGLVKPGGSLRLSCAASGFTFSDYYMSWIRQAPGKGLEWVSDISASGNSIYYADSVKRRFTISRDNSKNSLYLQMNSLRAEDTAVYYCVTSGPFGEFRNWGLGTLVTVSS VL: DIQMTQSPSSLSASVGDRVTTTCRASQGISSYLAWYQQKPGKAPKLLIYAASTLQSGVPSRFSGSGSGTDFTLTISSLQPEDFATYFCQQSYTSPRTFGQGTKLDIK : 2.8
PD1-45F1 (antibody, V domains shown, scFv-phage in the screening ELISA; later whole IgG) VH: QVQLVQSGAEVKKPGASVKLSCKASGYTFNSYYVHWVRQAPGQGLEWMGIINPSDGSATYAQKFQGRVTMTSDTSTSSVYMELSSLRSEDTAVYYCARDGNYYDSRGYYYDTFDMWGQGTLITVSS VL: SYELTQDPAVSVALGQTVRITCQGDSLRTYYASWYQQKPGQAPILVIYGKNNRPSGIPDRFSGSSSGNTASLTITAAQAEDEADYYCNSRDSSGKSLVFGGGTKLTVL : 3.9

Look at this binder and give its reported OD490. PD1-45D6 (antibody, V domains shown, scFv-phage in the screening ELISA; whole IgG in the other assays) VH: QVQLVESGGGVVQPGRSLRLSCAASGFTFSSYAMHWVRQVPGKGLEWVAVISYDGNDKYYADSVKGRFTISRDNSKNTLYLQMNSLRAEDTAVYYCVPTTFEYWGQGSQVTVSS VL: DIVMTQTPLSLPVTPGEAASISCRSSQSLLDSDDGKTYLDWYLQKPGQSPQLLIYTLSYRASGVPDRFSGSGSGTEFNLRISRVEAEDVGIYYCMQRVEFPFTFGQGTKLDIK
1.3
